# measured.target: HLA-A*32:01
# assay.comment: IEDB peptide-MHC binding, purified MHC/competitive/radioactivity; filed as Kd, often an IC50 or EC50 that approximates it; bounds were set here for any values at or beyond the usual limits of such assays
# condition.info: source organism: Vaccinia virus WR
Below: a set of entries, each annotated with reported log10 of Kd.
Field: value | Transform: log10 | Quantity: Kd | Unit: nM

Query: So what's the measured log10 of Kd for this one? "MILFLKLLI"
Response: 2.85

---

# measured.target: HLA-B*18:01
# assay.comment: IEDB peptide-MHC binding, purified MHC/competitive/fluorescence; filed as Kd, often an IC50 or EC50 that approximates it; bounds were set here for any values at or beyond the usual limits of such assays
# condition.info: source organism: Cryptosporidium parvum Iowa II
pKd: −log10 of the molar value.
Below: a set of entries, each annotated with reported pKd.

>  <residues>
GFPFFIMPK

>  <pKd>
≤ 4.70

$$$$

Here is the next item to consider.
Query: So what's the measured pKd for this one? "KIVPLPPMY"
Response: ≤ 4.70

---

# measured.target: HLA-A*24:03
# assay.comment: IEDB peptide-MHC binding, purified MHC/direct/fluorescence; filed as Kd, often an IC50 or EC50 that approximates it; bounds were set here for any values at or beyond the usual limits of such assays
# condition.info: source organism: Vibrio vulnificus YJ016
pKd: −log10 of the molar value.
metric: pKd

Query: So what's the measured pKd for this one? "SVFELSNFA"
Response: ≤ 4.70

---

# measured.target: HLA-B*83:01
# assay.comment: IEDB peptide-MHC binding, purified MHC/competitive/fluorescence; filed as Kd, often an IC50 or EC50 that approximates it; bounds were set here for any values at or beyond the usual limits of such assays
# condition.info: source organism: Hepacivirus hominis
pKd: −log10 of the molar value.
metric: pKd

Query: Item "LLPRRGPRL" with HLA-B*83:01 - pKd?
Response: ≤ 5.30

---

# measured.target: HLA-A*33:01
# assay.comment: IEDB peptide-MHC binding, purified MHC/competitive/radioactivity; filed as Kd, often an IC50 or EC50 that approximates it; bounds were set here for any values at or beyond the usual limits of such assays
# condition.info: source organism: Vaccinia virus WR
metric: pKd
Convention used: pKd is expressed as -log10 of the molar concentration.

Guide cases for pKd, answers given:
>  <residues>
DIKLDAVLDR

>  <measured.target>
HLA-A*33:01

>  <measured.result>
6.81

$$$$
>  <residues>
EMYPRHRYSK

>  <measured.target>
HLA-A*33:01

>  <measured.result>
6.49

$$$$

Query: So what's the measured pKd for this one? "TIEILRNYLR"
Response: 7.56

Query: So what's the measured pKd for this one? "ESRPFDLIKK"
Response: 6.00

Query: So what's the measured pKd for this one? "FSNTIQSYK"
Response: 5.70

Query: So what's the measured pKd for this one? "QFANVISKIY"
Response: 5.92

Query: So what's the measured pKd for this one? "NTMCTEETKR"
Response: 5.38

Query: So what's the measured pKd for this one? "TLNGIMMNER"
Response: 5.84

Query: So what's the measured pKd for this one? "ETFKIDAVR"
Response: 7.68

Query: So what's the measured pKd for this one? "AVLSAATETY"
Response: 5.06

Query: So what's the measured pKd for this one? "NFFTELENK"
Response: 4.95

Query: So what's the measured pKd for this one? "WLHECTDESR"
Response: 6.60

Query: So what's the measured pKd for this one? "YISRDELWAR"
Response: 9.09

Query: So what's the measured pKd for this one? "TFIDVHIPK"
Response: 8.98

Query: So what's the measured pKd for this one? "KVSAQNISFK"
Response: 5.48

Query: So what's the measured pKd for this one? "MSMGDIITY"
Response: 4.88

Query: So what's the measured pKd for this one? "ELALTDVEK"
Response: 5.24

---

# measured.target: HLA-B*46:01
# assay.comment: IEDB peptide-MHC binding, purified MHC/direct/fluorescence; filed as Kd, often an IC50 or EC50 that approximates it; bounds were set here for any values at or beyond the usual limits of such assays
# condition.info: source organism: Bacillus anthracis
pKd: −log10 of the molar value.
metric: pKd

Query: Item "DTVLFNAGL" with HLA-B*46:01 - pKd?
Response: ≤ 4.70

---

# measured.target: HLA-B*51:01
# assay.comment: IEDB peptide-MHC binding, purified MHC/competitive/fluorescence; filed as Kd, often an IC50 or EC50 that approximates it; bounds were set here for any values at or beyond the usual limits of such assays
# condition.info: source organism: Campylobacter jejuni subsp. jejuni NCTC 11168 = ATCC 700819
metric: Kd

Query: Item "FTFERSKIK" with HLA-B*51:01 - Kd?
Response: ≥ 20 µM

---

# measured.target: HLA-B*44:02
# assay.comment: IEDB peptide-MHC binding, purified MHC/direct/fluorescence; filed as Kd, often an IC50 or EC50 that approximates it; bounds were set here for any values at or beyond the usual limits of such assays
# condition.info: source organism: Mammarenavirus lassaense
pKd: −log10 of the molar value.
metric: pKd

Query: So what's the measured pKd for this one? "KREEHYIVL"
Response: ≤ 4.70

---

# measured.target: HLA-B*08:02
# assay.comment: IEDB peptide-MHC binding, purified MHC/direct/fluorescence; filed as Kd, often an IC50 or EC50 that approximates it; bounds were set here for any values at or beyond the usual limits of such assays
# condition.info: source organism: Mycobacterium tuberculosis str. Haarlem
pKd: −log10 of the molar value.
metric: pKd

Guide cases for pKd, answers given:
>  <residues>
VPRDRNGTF

>  <pKd>
4.72

$$$$
>  <residues>
AVFDSFVER

>  <pKd>
≤ 4.70

$$$$

Here is the next item to consider.
Query: So what's the measured pKd for this one? "RGRIGRTYL"
Response: ≤ 4.70

---

# measured.target: HLA-A*02:06
# assay.comment: IEDB peptide-MHC binding, purified MHC/competitive/radioactivity; filed as Kd, often an IC50 or EC50 that approximates it; bounds were set here for any values at or beyond the usual limits of such assays
# condition.info: source organism: Trypanosoma cruzi
metric: Kd (nM)
Number in nM, nothing else.

Query: Item "GLLPLFLLLG" with HLA-A*02:06 - Kd?
Response: 18.3

---

# measured.target: HLA-A*02:19
# assay.comment: IEDB peptide-MHC binding, purified MHC/competitive/fluorescence; filed as Kd, often an IC50 or EC50 that approximates it; bounds were set here for any values at or beyond the usual limits of such assays
# condition.info: source organism: Human immunodeficiency virus type 1 (ELI ISOLATE)
metric: pKd
Convention used: pKd is expressed as -log10 of the molar concentration.

Query: So what's the measured pKd for this one? "FLGRIWPS"
Response: 8.74

---

# measured.target: HLA-A*24:02
# assay.comment: IEDB peptide-MHC binding, purified MHC/competitive/fluorescence; bounds were set here for any values at or beyond the usual limits of such assays
# condition.info: source organism: Vaccinia virus
metric: IC50

Guide cases for IC50, answers given:
>  <residues>
YLLFGIKCI

>  <IC50>
7.15 µM

$$$$
>  <residues>
TRAADEPPL

>  <IC50>
≥ 169 µM

$$$$

Query: So what's the measured IC50 for this one? "EKEFLRYLL"
Response: ≥ 116 µM

---

# measured.target: HLA-A*26:03
# assay.comment: IEDB peptide-MHC binding, purified MHC/direct/fluorescence; filed as Kd, often an IC50 or EC50 that approximates it; bounds were set here for any values at or beyond the usual limits of such assays
# condition.info: source organism: Rickettsia prowazekii
metric: Kd

Query: Item "GTIIAHGGL" with HLA-A*26:03 - Kd?
Response: ≥ 20 µM

---

# measured.target: HLA-A*33:01
# assay.comment: IEDB peptide-MHC binding, purified MHC/competitive/radioactivity; filed as Kd, often an IC50 or EC50 that approximates it; bounds were set here for any values at or beyond the usual limits of such assays
# condition.info: source organism: Mammarenavirus guanaritoense
metric: Kd (nM)
Number in nM, nothing else.

Query: So what's the measured Kd for this one? "NYVHCFRKPH"
Response: 1430

---

# measured.target: HLA-A*03:01
# assay.comment: IEDB peptide-MHC binding, purified MHC/direct/fluorescence; filed as Kd, often an IC50 or EC50 that approximates it; bounds were set here for any values at or beyond the usual limits of such assays
# condition.info: source organism: Rio Mearim virus
metric: Kd

Query: So what's the measured Kd for this one? "DWMERIEDF"
Response: ≥ 20 µM

---

# measured.target: HLA-B*27:03
# assay.comment: IEDB peptide-MHC binding, purified MHC/competitive/fluorescence; filed as Kd, often an IC50 or EC50 that approximates it; bounds were set here for any values at or beyond the usual limits of such assays
# condition.info: source organism: Zaire ebolavirus
pKd: −log10 of the molar value.
metric: pKd

Guide cases for pKd, answers given:
>  <residues>
IFLKPDETF

>  <pKd>
≤ 4.70

$$$$
>  <residues>
KVYWAGIEF

>  <pKd>
≤ 4.70

$$$$

Here is the next item to consider.
Query: So what's the measured pKd for this one? "SQVRVPTVF"
Response: ≤ 4.70
